All values here come from patent US20120178701A1.

systemUnderTest: human recombinant melanocortin-4 receptor (human, UniProt P32245 1-332)
Sequence (P32245 whole entry): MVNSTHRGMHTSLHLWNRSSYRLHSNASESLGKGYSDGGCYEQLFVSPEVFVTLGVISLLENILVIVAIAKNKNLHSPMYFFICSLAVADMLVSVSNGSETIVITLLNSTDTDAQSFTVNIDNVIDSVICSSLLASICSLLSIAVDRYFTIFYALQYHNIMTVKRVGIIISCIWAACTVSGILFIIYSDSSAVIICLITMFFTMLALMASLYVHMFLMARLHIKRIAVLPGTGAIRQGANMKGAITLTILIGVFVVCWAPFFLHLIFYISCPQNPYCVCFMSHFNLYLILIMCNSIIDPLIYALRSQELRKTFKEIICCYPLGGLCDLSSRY
experimentDescription: cell-based or functional assay
Bridge positions count the residues as written; N and C are the ends. Square brackets hold non-standard residues; d marks the D form. Aad = N[C@@H](CCCC(=O)O)C(=O)O; Dab = NCC[C@H](N)C(=O)O
measuredProperty: intrinsic activity (cAMP; NDP-α-MSH = 100%)

>  <binder>
Ac-RDQ[dF]RWK-NH2 (lactam 2-7, any difference is only in the drawings; also called peptide No. 32) [Ac-Arg-cyclo(Asp-Gln-D-Phe-Arg-Trp-Lys)-NH2]

>  <readoutValue>
98%

$$$$
>  <binder>
Ac-RDH[dF]RWK-NH2 (lactam 2-7, also called peptide No. 1) [Ac-Arg-cyclo(Asp-His-D-Phe-Arg-Trp-Lys)-NH2]

>  <readoutValue>
91%

$$$$
>  <binder>
Ac-R[Dab]H[dF]RW[Aad]-NH2 (lactam 2-7) [Ac-Arg-cyclo(Dab-His-D-Phe-Arg-Trp-hGlu)-NH2]

>  <readoutValue>
95%

$$$$
>  <binder>
Ac-RDV[dF]RWK-NH2 (lactam 2-7, also called peptide No. 16) [Ac-Arg-cyclo(Asp-Val-D-Phe-Arg-Trp-Lys)-NH2]

>  <readoutValue>
42%

$$$$
